Assay: Stability in DMSO solution assessed as parent compound remaining at 10 mM incubated for 38 days exposed to laboratory air by HPLC method
Property: remaining at 912 h, 10000 µM (%)

These solved cases illustrate the format of a correct answer.
# Input smiles, remaining at 912 h, 10000 µM / %
data = [
    ("O=C(O)c1cc(-c2ccco2)cc2ccccc12", 89),
    ("O=C(NNC(=O)c1cc(-c2ccco2)nc2ccccc12)NC1CCCCC1", 64),
    ("Cc1ccc(-c2cc(C(=O)Nc3nnc(-c4ccncc4)s3)ccn2)o1", 34),
    ("Cc1ccc(-c2cc(C(=O)NCc3ccc4c(c3)OCO4)c3ccccc3n2)o1", 56),
    ("Cc1ccc(-c2cc(C(=O)Nc3nnc(-c4ccncc4)s3)c3ccccc3c2)o1", 25),
    ("Cc1ccc(-c2cc(C(=O)O)c3ccccc3c2)o1", 82),
    ("Cc1ccc(-c2cc(C(=O)O)c3ccccc3n2)o1", 83),
    ("O=C(Nc1nnc(-c2ccncc2)s1)c1ccnc(-c2ccco2)c1", 90),
    ("Cc1ccc(-c2ccc3ccccc3n2)o1", 102),
]

[I] O=C(Nc1nnc(-c2ccncc2)s1)c1cc(-c2ccco2)cc2ccccc12
[II] c1coc(-c2ccc3ccccc3n2)c1
Query :: Between I and II , whose measured remaining at 912 h, 10000 µM reads higher? Please respond with the label that marks your chosen entry.
Result :: II

====

Test: Toxicity against HEK293T cells assessed as cell viability at 50 uM incubated for 5 days
Format: cell-based, HEK-293T
Conditions: human, read-out: Activity
Property: viability at 120 h, 50 µM

Query :: What does the data say about its viability at 120 h, 50 µM? Entry: Cc1ccc(-c2cc(C(=O)Nc3nnc(-c4ccncc4)s3)c3ccccc3n2)o1
Result :: > 85%

====

Assay: Stability in DMSO solution assessed as parent compound remaining at 10 mM incubated for 38 days exposed to laboratory air by HPLC method
Property: remaining at 912 h, 10000 µM (%)

# Molecule, Property, Unit symbol, Measured value
data = [
    ("O=C(Nc1nnc(-c2ccncc2)s1)c1cc(-c2ccco2)nc2ccccc12", "remaining at 912 h, 10000 µM", "%", 101),
    ("Cc1ccc(-c2cc(C(=O)NC(C)C3CCCO3)c3ccccc3n2)o1 (stereo unspecified)", "remaining at 912 h, 10000 µM", "%", 55),
    ("Cc1cccc(NC(=O)c2cc(-c3ccc(C)o3)nc3ccccc23)n1", "remaining at 912 h, 10000 µM", "%", 73),
    ("O=C(O)c1ccnc(-c2ccco2)c1", "remaining at 912 h, 10000 µM", "%", 92),
    ("O=C(O)c1cc(-c2ccco2)nc2ccccc12", "remaining at 912 h, 10000 µM", "%", 69),
]

[a] Cc1ccc(-c2cc(C(=O)Nc3nnc(-c4ccncc4)s3)c3ccccc3n2)o1
[b] Cc1ccc(-c2cc(C(=O)O)ccn2)o1
[c] Cc1ccc(-c2cc(C(=O)N3CCN(S(C)(=O)=O)CC3)c3ccccc3n2)o1
Query :: Sort (3 molecules) by remaining at 912 h, 10000 µM: min first. Please respond with the labels ordered as the question requires.
Result :: a, c, b
(a: 6%, c: 26%, b: 85%)

[P] COC(=O)c1cc(NC(=O)c2cc(-c3ccc(C)o3)nc3ccccc23)cc(C(=O)OC)c1
[Q] COc1ccc(CCNC(=O)c2cc(-c3ccc(C)o3)nc3ccccc23)cc1
[R] Cc1ccc(-c2cc(C(=O)NC3CCCCC3)c3ccccc3n2)o1
Query :: Put the entries in order of remaining at 912 h, 10000 µM, starting with the largest number. List the labels, following the order given in the request.
Result :: Q, R, P
(Q: 84%, R: 54%, P: 19%)
